List of koff values.
# target entity: T1, human bone morphogenic protein 2 (BMP2) (human, UniProt P12643 283-396, Disulfide-linked homodimer of this chain (non-reduced band of about 36 kDa, monomers of 17-18 kDa); one copy is given.)
# T1 construct: Bought recombinant human BMP2 (R&D Systems or Medtronic); also called recombinant human BMP2
# T1 sequence (P12643 283-396 limits assumed): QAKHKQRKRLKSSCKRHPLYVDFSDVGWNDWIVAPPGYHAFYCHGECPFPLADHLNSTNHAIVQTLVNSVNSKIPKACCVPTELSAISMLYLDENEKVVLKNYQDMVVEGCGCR
# experiment: SPR (Biacore); mAb captured via anti-human Fc, BMP flowed at 10 nM
Dear colleague, please return just the value in s⁻¹, with no unit written.

33F7 human monoclonal antibody (antibody, V domains shown, Human IgG from a HuMAb/KM mouse hybridoma) VH: QVQLVQSGAEVKKPGSSVKVSCKASGGTFSSYAINWVRQAPGQGLEWMGRLIPILGIANYAQKFQGRVTITADKSTSTAYMELSSLRSEDTAVYYCARGKDIWGQGTMVTVSS VL: EIVLTQSPGTLSLSPGERVTLSCRASQSVSSNYLAWYQQKPGQAPRLLIKGASSRATGIPDRFSGSGSGTDFTLTISRLEPEDFAVYYCQQYGSSPCTFGQGTKLEIK = 0.000654
6H4 human monoclonal antibody (antibody, V domains shown, Human IgG from a HuMAb/KM mouse hybridoma) VH: QVHLQQWGAGLLKPSETLSLTCAVYGGSFSGYYWSWIRQPPGKGLEWIGEINHSGSTNYNPSLKSRVTISVDTSKNQFSLKLSSVTAADTAVYYCAREYYYGSESEYFQHWGQGTLVTVSS VL: EIVLTQSPATLSLSPGERATLSCRASQSVSSYLAWYQQKPGQAPRLLIYDASNRATGIPARFSGSGSGTDFTLTISSLEPEDFAVYYCQQRSNWPHTFGQGTKLEIK = 0.000198
10F6 human monoclonal antibody (antibody, V domains shown, Human IgG from a HuMAb/KM mouse hybridoma) VH: QVQLVESGGGVVQPGRSLRLSCAASGFTFRSYGIHWVRQAPGKGLEWVAVIWYDGSHKYYADSVKGRFTISRDNSKNTLDLQMNSLRAEDTAVYYCVRGSSNWYFDYWGQGTLVTVSS VL: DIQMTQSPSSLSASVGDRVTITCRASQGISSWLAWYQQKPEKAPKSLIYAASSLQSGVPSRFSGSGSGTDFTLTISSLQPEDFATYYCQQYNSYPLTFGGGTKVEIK = 0.000385

# input binder: 12E3 human monoclonal antibody (antibody, V domains shown, Human IgG from a HuMAb/KM mouse hybridoma) VH: QVQLVESGGGVVQPGRSLRLSCAASGFTFSSYGMHWVRQAPGKGLEWVAVIWDDGRKKYYADSVKGRFTISRDNSKNTLYLQMNSLRAEDTAVYYCAREPAGVWGMDVWGQGTTVTVSS VL: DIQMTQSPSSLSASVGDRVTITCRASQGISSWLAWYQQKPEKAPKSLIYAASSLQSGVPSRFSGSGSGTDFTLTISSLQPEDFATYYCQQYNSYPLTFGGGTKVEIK ; wanted: its koff
8.26e-05
